molecular target: TLR8 (Homo sapiens); assay: Dose dependent TLR8-mediated NF-κB-luciferase response in HEK293 cells transfected with TLR8 (Example 5); type: cell-based; set-up: expressed in transfected cells; host or cells: HEK293 (ATCC CRL-1573), pIRES vector, G-418 selected, co-transfected with NFkB-luc reporter; conditions: 1.0 μM
Sequence (Q9NR97 27-1041): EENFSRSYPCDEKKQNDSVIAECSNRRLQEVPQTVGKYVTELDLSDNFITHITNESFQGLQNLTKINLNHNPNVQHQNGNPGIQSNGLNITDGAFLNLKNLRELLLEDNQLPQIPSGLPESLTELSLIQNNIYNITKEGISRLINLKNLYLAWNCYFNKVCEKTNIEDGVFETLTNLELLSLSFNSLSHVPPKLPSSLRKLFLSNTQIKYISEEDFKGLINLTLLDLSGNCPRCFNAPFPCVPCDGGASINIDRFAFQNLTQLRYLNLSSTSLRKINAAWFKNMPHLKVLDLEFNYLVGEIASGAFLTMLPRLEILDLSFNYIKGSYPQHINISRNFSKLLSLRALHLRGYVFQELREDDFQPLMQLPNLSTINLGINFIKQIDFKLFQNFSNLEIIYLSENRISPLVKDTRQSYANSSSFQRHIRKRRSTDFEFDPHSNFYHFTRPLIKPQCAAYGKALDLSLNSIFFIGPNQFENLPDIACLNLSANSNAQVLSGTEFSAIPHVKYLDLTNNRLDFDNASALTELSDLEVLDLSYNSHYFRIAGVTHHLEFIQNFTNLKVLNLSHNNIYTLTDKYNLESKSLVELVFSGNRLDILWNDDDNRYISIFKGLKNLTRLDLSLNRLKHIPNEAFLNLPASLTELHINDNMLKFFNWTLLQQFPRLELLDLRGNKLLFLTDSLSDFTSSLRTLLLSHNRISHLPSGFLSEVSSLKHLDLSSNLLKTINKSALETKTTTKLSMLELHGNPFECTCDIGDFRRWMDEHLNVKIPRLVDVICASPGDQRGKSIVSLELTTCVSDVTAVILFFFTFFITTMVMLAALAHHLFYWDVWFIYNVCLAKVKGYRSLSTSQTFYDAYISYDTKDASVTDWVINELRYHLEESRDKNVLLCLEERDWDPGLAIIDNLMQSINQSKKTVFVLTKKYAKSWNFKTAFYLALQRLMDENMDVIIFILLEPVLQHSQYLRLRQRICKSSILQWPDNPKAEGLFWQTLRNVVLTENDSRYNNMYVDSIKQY
measurement-type: Fold increase over vehicle (fold)
Answer in fold, number only, no unit symbol.

# example entries with known answers
molecule	Fold increase over vehicle / fold
CCOCc1nc2c(N)nc3cc(-c4cccnc4)ccc3c2n1CC(C)(C)O	11.9
CCCNC(=O)NC(C)(C)Cn1c(COCC)nc2c(N)nc3ccccc3c21	1.0
CCOCc1nc2c(N)nc3cc(-c4ccccc4)ccc3c2n1CC1CCNCC1	1.1
CCCCc1nc2c(N)nc3ccccc3c2n1CCS(=O)(=O)CC	1.3
COCCc1nc2c(N)nc3cc(-c4cccc(NS(C)(=O)=O)c4)ccc3c2n1CC(C)(C)O	2.2
CCOCc1nc2c(N)nc3cc(-c4ccncc4)ccc3c2n1CC(C)(C)O	5.9
CCOCc1nc2c(N)nc3cc(-c4ccc(CO)cc4)ccc3c2n1CC1COC(C)(C)O1 (centres unmarked)	1.4
CCOCc1nc2c(N)nc3c(c2n1NC(C)C)CCCC3	1.1

So what Fold increase over vehicle did `CCCCc1nc2c(N)nc3ccccc3c2n1CCS(C)(=O)=O` get with TLR8 (Homo sapiens)?
6.7

So what Fold increase over vehicle did `CCCCc1nc2c(N)nc3ccccc3c2n1CCCS(C)(=O)=O` get with TLR8 (Homo sapiens)?
0.9

So what Fold increase over vehicle did `CCOCc1nc2c(N)nc3cc(-c4cccc(C(=O)N5CCCC5)c4)ccc3c2n1CC(C)(C)O` get with TLR8 (Homo sapiens)?
0.9

So what Fold increase over vehicle did `COCCc1nc2c(N)nc3cc(-c4cncc(CO)c4)ccc3c2n1CC(C)(C)O` get with TLR8 (Homo sapiens)?
2.0

So what Fold increase over vehicle did `CCOCc1nc2c(N)nc3ccccc3c2n1CC(C)(C)NC(=O)NC1CCCC1` get with TLR8 (Homo sapiens)?
1.2
